The measurements presented in this section are drawn from the supplement of paper PMC4932681.

# Test system: ZR-75-1 Tam2
# method_notes: viability inhibition at highest dose (% inhibition); higher = more growth inhibition
# run_conditions: 4-OH-tamoxifen in medium 1 µM; 72 h

>  <molecule>
Cn1cc(C2=Nc3cc(NC(=O)C(N)C4CCCCC4)cc4c3C2=CNNC4=O)cn1 (stereo unspecified) (drug 10000 nM)

>  <viability inhibition at highest dose>
-2.91

$$$$
>  <molecule>
CCN1CCN(c2ccc(Nc3cc(N(C)C(=O)Nc4c(Cl)c(OC)cc(OC)c4Cl)ncn3)cc2)CC1 [NVP-BGJ398] (drug 1000 nM)

>  <viability inhibition at highest dose>
-4.28

$$$$
>  <molecule>
Cc1cc(Nc2cc(CN3CCOCC3)c3nc(C)c(Cc4ccc(Cl)cc4F)n3n2)n[nH]1 (drug 10000 nM)

>  <viability inhibition at highest dose>
16.8

$$$$
>  <molecule>
CCN(CC)CCNC(=O)c1c(C)[nH]c(/C=C2\C(=O)Nc3ccc(F)cc32)c1C (drug 1000 nM)

>  <viability inhibition at highest dose>
2.39

$$$$
>  <molecule>
CCC1(c2ccc(N)cc2)CCC(=O)NC1=O (stereo unspecified) [Aminoglutethimide] (drug 10000 nM)

>  <viability inhibition at highest dose>
8.94

$$$$
>  <molecule>
CO[C@H]1C[C@@H]2CC[C@@H](C)[C@@](O)(O2)C(=O)C(=O)N2CCCC[C@H]2C(=O)O[C@H]([C@H](C)C[C@@H]2CC[C@@H](OC(=O)C(C)(CO)CO)[C@H](OC)C2)CC(=O)[C@H](C)/C=C(\C)[C@@H](O)[C@@H](OC)C(=O)[C@H](C)C[C@H](C)/C=C/C=C/C=C/1C [Temsirolimus] (drug 100 nM)

>  <viability inhibition at highest dose>
36.2

$$$$
